Test system: EKVX
test description: In vitro cytotoxicity, Development Therapeutics Program
Format: cell-based
particulars: non-small cell lung cancer, 1.0×10^−5 M
experimental endpoint: Cellular growth rate (%)
Phrase the answer as number then unit, nothing more needed.

Guide cases for Cellular growth rate (%), answers given:
Per the records, this compound ( O=C(CCN1CCCC1)Nc1ccc2c(c1)C(=O)c1cc(NC(=O)CCN3CCCC3)ccc1C2=O [Compound 18] ) has Cellular growth rate (%) equal to 58.72%

# compound O=C1c2ccc(NC(=O)C3CC3)cc2C(=O)c2cc(NC(=O)C3CC3)ccc21 [Compound 32] ; its Cellular growth rate (%) = 94.31%

Sample CC(=O)Nc1ccc2c(c1)C(=O)c1cc(NC(C)=O)ccc1C2=O [Compound 26, 2,7-Bis(acetamido)anthraquinone] ; Cellular growth rate (%) observed: 95.28%

So, CN(C)CC(=O)Nc1ccc2c(c1)C(=O)c1cc(NC(=O)CN(C)C)ccc1C2=O [Compound 8] ? Its Cellular growth rate (%) was 102.30%

Lab note: next compound to report on.
Query CCN(CC)CCC(=O)Nc1ccc2c(c1)C(=O)c1cc(NC(=O)CCN(CC)CC)ccc1C2=O [Compound 16] yields Cellular growth rate (%) of 59.99%
